test system: MS2 coat protein; experiment: apparent KD of MS2 coat protein; designed switch direction (-1 OFF switch, 1 ON switch): -1; higher = weaker reporter binding; settings: input ligand: none
Provide the reported apparent KD of MS2 coat protein of each item.
Give just the number in nM; leave the unit off.

Summary for this sequence, CAUGUGUUAGGAUAUGCACAGAUCUCCUAAUGGAGAUCUGUGCAGAAGGAACAUGAGGAUCACCCAUGUUGAUG [Mod of Brourd 13 - Jieux - Exclusion 4] (Eterna round: R97, puzzle: Exclusion 4) : apparent KD of MS2 coat protein is 35.4

Summary for this sequence, GUUCUUCCUGUGAGGAUAUCCAUGUGUCGGUGUGUGGAGAAGGUACAUGAGGAUCACCCAUGUCACCCGCGUUA (Eterna round: R97, puzzle: Brourd's mod of Exclusion 4) : apparent KD of MS2 coat protein is 19.2

Summary for this sequence, UGCGGUGAGGUAAGGAUAUUUGGGCAAUUACGCCCGGAGAAGGUACAUGAGGAUCACCCAUGUGCAGUAAGGCU [Eternabot (L2) Solution 18] (Eterna round: R97, puzzle: Brourd's mod of Exclusion 4) : apparent KD of MS2 coat protein is 26.9
